MIC reference
Tested on: Schizosaccharomyces pombe
Procedure Details: Antifungal activity against Schizosaccharomyces pombe by serial dilution method
Assay type: functional

{"Molecule": "CC1=C(O)C(C)O/C(=C/CC(O)\\C=C/C=C/C(C)=C/C=C/C(C)C(O)C(C)CCc2ccccc2)C1=O (stereo not drawn)", "MIC": "> 67 µg/mL"}
{"Molecule": "CC(/C=C/CCCC/C=C/c1oc(=O)c(C)c(O)c1C)=C\\C=C\\C(C)C(O)C(C)CCc1ccccc1 (stereo not drawn)", "MIC": "> 67 µg/mL"}

Now turn to the next molecule.
Ask: Value wanted: MIC (Schizosaccharomyces pombe) of entry CC1=C(CC(O)CC(O)\C=C/C=C/C(C)=C/C=C/C(C)C(O)C(C)CCc2ccccc2)[N+](C)(CCO)C(C)(O)C1=O (stereo not drawn)
Result: > 67 µg/mL

* * *

Tested on: Mucor hiemalis
Procedure Details: Antifungal activity against Mucor hiemalis by serial dilution method
Assay type: functional
List of MIC values.

Example results:
{"Compound": "CC1=C(/C=C/CC(O)\\C=C/C=C/C(C)=C/C=C/C(C)C(O)C(C)CCc2ccccc2)OC(C)(O)C1=O (centres undefined)", "MIC": "> 67 mg/L"}
{"Compound": "CC1=C(CC(O)CC(O)/C=C/C=C/C(C)=C/C=C/C(C)C(O)C(C)CCc2ccccc2)OC(C)(O)C1=O (centres undefined)", "MIC": "> 67 mg/L"}
{"Compound": "CC1=C(CC(O)CC(O)\\C=C/C=C/C(C)=C/C=C/C(C)C(O)C(C)CCc2ccccc2)N(CCO)C(C)(O)C1=O (centres undefined)", "MIC": "> 67 mg/L"}

Let's switch to this compound now.
Ask: Field request: MIC | item: CC1=C(CC(O)CC(O)\C=C/C=C/C(C)=C/C=C/C(C)C(O)C(C)CCc2ccccc2)OC(C)(O)C1=O (centres undefined)
Result: > 67 mg/L
